# target desc: UniProt:P21589
# Sequence (P21589 27-574): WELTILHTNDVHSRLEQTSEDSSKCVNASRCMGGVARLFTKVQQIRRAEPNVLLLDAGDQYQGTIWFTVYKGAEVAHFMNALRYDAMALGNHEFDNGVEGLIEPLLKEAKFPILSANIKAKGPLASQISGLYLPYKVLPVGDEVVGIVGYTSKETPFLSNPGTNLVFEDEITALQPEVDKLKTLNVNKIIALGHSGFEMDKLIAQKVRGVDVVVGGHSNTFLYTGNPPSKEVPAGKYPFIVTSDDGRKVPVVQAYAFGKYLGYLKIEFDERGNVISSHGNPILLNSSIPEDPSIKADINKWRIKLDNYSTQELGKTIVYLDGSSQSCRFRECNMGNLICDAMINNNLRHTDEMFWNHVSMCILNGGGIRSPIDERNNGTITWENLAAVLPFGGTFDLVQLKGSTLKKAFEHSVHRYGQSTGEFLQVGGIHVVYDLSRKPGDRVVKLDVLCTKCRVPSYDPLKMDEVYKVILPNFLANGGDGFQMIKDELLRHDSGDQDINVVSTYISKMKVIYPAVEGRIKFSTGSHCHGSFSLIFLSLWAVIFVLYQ
# Type: biochemical
# run conditions: 1 mM NaH2PO4 in enzyme buffer, CD73 0.3 nM, AMP 15 uM
// reported pIC50 for each item listed
Please report pIC50 as the negative decimal logarithm of the molar concentration, giving only the number.

# molecule, experimental result
rows = [
    ("O=C(OCC(F)(F)F)N1CC2(C1)CN(c1cc(-c3c[nH]c(=O)[nH]c3=O)nn3ccnc13)CC2(F)F", 8.05),
    ("O=c1[nH]cc(-c2cc(N3CC4CCCCC43)c3nccn3n2)c(=O)[nH]1 (centres unmarked)", 7.17),
    ("O=c1[nH]cc(-c2cc(N3CC(F)C4(CC4)C3)c3ncc(F)n3n2)c(=O)[nH]1 (centres unmarked)", 8.10),
]

Problem: Tell me measured pIC50 for CC(C)NC(=O)CC1CCN(c2cc(-c3c[nH]c(=O)[nH]c3=O)nn3ccnc23)C1 (centres unmarked) please.
Result: 7.26

Problem: Tell me measured pIC50 for `O=c1[nH]cc(-c2cc(N3CCC4(CCOCC4)C3)c3nccn3n2)c(=O)[nH]1` please.
Result: 8.06

Problem: Tell me measured pIC50 for COC(=O)c1ccc([C@H]2C[C@@H]2c2cc(-c3c[nH]c(=O)[nH]c3=O)nn3ccnc23)cc1 (racemic) please.
Result: 8.81

Problem: Tell me measured pIC50 for O=C1N(CC(F)(F)F)c2cc([C@H]3C[C@@H]3c3cc(-c4c[nH]c(=O)[nH]c4=O)nn4ccnc34)ccc2C12CC2 (racemic) [Example 382] please.
Result: 8.79

Problem: Tell me measured pIC50 for `C[C@H]1CN(c2cc(-c3c[nH]c(=O)[nH]c3=O)nn3c(Cl)cnc23)CC1(F)F` please.
Result: 7.36

Problem: Tell me measured pIC50 for O=c1[nH]cc(-c2cc([C@H]3C[C@@H]3c3ccnc(C(F)(F)F)c3)c3nccn3n2)c(=O)[nH]1 (racemic) please.
Result: 7.81

Problem: Tell me measured pIC50 for `O=c1[nH]cc(-c2cc([C@H]3C[C@@H]3c3ccc4c(cnn4CC(F)(F)F)c3)c3nccn3n2)c(=O)[nH]1` please.
Result: 9.19

Problem: Tell me measured pIC50 for O=c1[nH]cc(-c2cc([C@H]3C[C@@H]3c3cc4c(ccn4CC(F)(F)F)cn3)c3nccn3n2)c(=O)[nH]1 (racemic) [Example 127] please.
Result: 8.95

Problem: Tell me measured pIC50 for O=c1[nH]cc(-c2cc(N3CC(Oc4ccc(C(F)(F)F)cn4)C4(CC4)C3)c3nccn3n2)c(=O)[nH]1 (centres unmarked) please.
Result: 7.99

Problem: Tell me measured pIC50 for O=c1[nH]cc(-c2cc([C@H]3C[C@@H]3c3ccc4c(C(F)(F)F)nc(CC(F)(F)F)n4c3)c3nccn3n2)c(=O)[nH]1 (racemic) please.
Result: 8.63

Problem: Tell me measured pIC50 for O=c1[nH]cc(-c2cc(N3CC(Oc4ccc(C(F)(F)F)cn4)C(F)(F)C3)c3ncnn3n2)c(=O)[nH]1 (racemic) please.
Result: 9.82

Problem: Tell me measured pIC50 for `O=c1[nH]cc(-c2cc(N3CC4(CCC4(F)F)C3)c3nccn3n2)c(=O)[nH]1` please.
Result: 8.08
